Record form. Attribute: slope. Fill in for each entry.
Biological target: Alpha-2C adrenergic receptor (Homo sapiens) (UniProt P18825)
Sequence (P18825 whole entry, looked up): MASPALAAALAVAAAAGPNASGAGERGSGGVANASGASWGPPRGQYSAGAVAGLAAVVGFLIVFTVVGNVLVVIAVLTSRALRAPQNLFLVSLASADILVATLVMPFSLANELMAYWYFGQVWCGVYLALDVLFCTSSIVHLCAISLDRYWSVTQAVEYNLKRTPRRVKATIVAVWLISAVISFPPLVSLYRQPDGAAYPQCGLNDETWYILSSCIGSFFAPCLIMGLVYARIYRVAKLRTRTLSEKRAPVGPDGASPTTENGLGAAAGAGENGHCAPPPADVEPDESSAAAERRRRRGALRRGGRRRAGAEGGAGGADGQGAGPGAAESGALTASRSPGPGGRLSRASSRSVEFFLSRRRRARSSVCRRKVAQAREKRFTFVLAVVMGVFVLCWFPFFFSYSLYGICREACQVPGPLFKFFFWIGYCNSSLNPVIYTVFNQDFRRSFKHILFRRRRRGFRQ
Experiment: modulators of alpha2C/GIRK thallium flux, primary screen, cell-based, HEK293 alpha2C/GIRK1/2 (AID 624);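 note: slope of fluorescence ratio to pre-addition baseline per second over 15 to 24 s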
Conditions: thallium flux BTC fluorescence, at 10 µM, actives lie on both sides
Reply with just the number.

The compound Cc1ccc(S(=O)(=O)N2CCN(c3nc(C)c4c(c3C#N)CC(C)(C)OC4)CC2)cc1 , tested on Alpha-2C adrenergic receptor (Homo sapiens) (UniProt P18825), showed slope of 0.0077

Form field, slope with Alpha-2C adrenergic receptor (Homo sapiens) (UniProt P18825), item O=C(c1ccc(=O)oc1)N1CCN(c2ccc(F)cc2)CC1 : 0.00509

Measured slope (Alpha-2C adrenergic receptor (Homo sapiens) (UniProt P18825)), entry Cc1cc(C)nc(N(C#N)S(=O)(=O)c2ccccc2Cl)n1 : 0.0071

# C=CCn1c(SCC(=O)NC23CC4CC(CC(C4)C2)C3)nc(O)cc1=O with Alpha-2C adrenergic receptor (Homo sapiens) (UniProt P18825): slope is 0.00471

Measured slope (Alpha-2C adrenergic receptor (Homo sapiens) (UniProt P18825)), entry COc1ccccc1-c1nnc2sc(COc3ccccc3)nn12 : 0.00451

Measured slope for this entry O=C(O)CN(c1ccccc1)C1SC(=O)NC1=O (stereo not given) on Alpha-2C adrenergic receptor (Homo sapiens) (UniProt P18825): 0.00506

# slope measured on Alpha-2C adrenergic receptor (Homo sapiens) (UniProt P18825) for item CNc1ccccc1-c1nc2ccccc2n(C)c1=O = 0.00346

Item Cc1cc(C)nc(N(C#N)CC(=O)N(c2ccccc2)C(C)C)n1 was tested on Alpha-2C adrenergic receptor (Homo sapiens) (UniProt P18825); the reported slope is 0.00548

Lab entry: Alpha-2C adrenergic receptor (Homo sapiens) (UniProt P18825) assay, compound CCN(CC)CCN1C(=O)C(=O)/C(=C(/O)c2ccc(OC(C)C)cc2)C1c1ccncc1 (stereo not given) , slope = 0.00527

# slope measured on Alpha-2C adrenergic receptor (Homo sapiens) (UniProt P18825) for item CC[C@H]1OC(=O)C[C@@H](O)[C@H](C)[C@@H](O[C@@H]2O[C@H](C)C[C@H](N(C)C)[C@H]2O)[C@@H](CC=O)C[C@@H](C)C(=O)C=C[C@]2(C)O[C@H]2[C@@H]1C = 0.00472

###

Kindly state fluorescence slope for each of the entries shown.
Molecular target: Voltage-gated potassium channel subunit beta-2 (Rattus norvegicus)
Test: KvBeta enzyme negative modulators, primary screen, biochemical, NADPH fluorescence (AID 622);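 note: slope of raw intensity against log time taken from 70 to 1610 s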
Conditions: recombinant KvBeta, 4-cyanobenzaldehyde reduction, at 10 µM, hits give high values
Active and inactive are the calls of the source.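 How the source made its calls: active means fluorescence slope higher than the sample average by over 3 SD (cut at about -0.22 in these data, passing the limit was not always enough); inactive means the rest.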

Field fluorescence slope (entry NC(N)=NC(N)=NCCc1ccccc1 ) reads -0.439 (inactive)

The compound identified as NC(=O)OCC(COC(N)=O)c1ccccc1 registered its fluorescence slope at -0.44 (inactive)

// recorded fluorescence slope for CSc1nc(O)c(Cc2ccccc2)c(=O)[nH]1 : -0.403 (inactive)

Query CC(O)c1n(C)c(Cl)c[n+]1C (configuration not stated) yields fluorescence slope of -0.454 (inactive)

Reported fluorescence slope for c1ccc(-c2nnc3n2N=C(c2ccc4c(c2)OCO4)CS3)nc1 was -0.406 (inactive)

Recorded result, Cc1c(OCc2ccccc2)c(=O)ccn1Cc1ccccc1 , fluorescence slope: -0.379 (inactive)

Reported fluorescence slope of CCOC(=O)c1cnc(SC2CC(=O)N(c3cccc(OC)c3)C2=O)nc1N (configuration not stated) : -0.317 (inactive)

# compound CC1(C)Cc2c(sc3c2C(=O)N(c2ccccc2)C2=NCCCN23)CO1 ; its fluorescence slope = -0.593 (inactive)

Record summary for Cc1ccc(C)c(OCc2nnc(NC(=O)c3ccco3)s2)c1 : reported fluorescence slope = -0.389 (inactive)

# fluorescence slope of CC1(C)CC(N(Cc2ccco2)C(=O)Cc2ccccc2)CCO1 (configuration not stated) = -0.485 (inactive)

What the record says about CCCCNc1nc2c(c(=O)n(C)c(=O)n2C)n1Cc1cccc(OC)c1 : fluorescence slope is -0.378 (inactive)

Consider Clc1ccc(-c2nnc3sc(Cc4cccs4)nn23)cc1 . Its measured fluorescence slope is -0.451 (inactive)

Summary for this compound, O=C(NC1CCS(=O)(=O)C1)N1CCCCC1 (configuration not stated) : fluorescence slope is -0.485 (inactive)

Measured fluorescence slope of COc1cccc(-c2nc(N3CC(C)CC(C)C3)c3ccccc3n2)c1O (configuration not stated) : -0.393 (inactive)

Lab note: measured fluorescence slope of COc1ccc(C2=Nn3c(nnc3-c3ccccc3)SC2)cc1OC was -0.413 (inactive)

Recorded fluorescence slope (compound Cc1nc(-c2cn[nH]c2)c2cc(C)oc2n1 ): -0.491 (inactive)

What the record says about CC(=O)c1ccc(O)c(CO)c1 : fluorescence slope is -0.463 (inactive)

Note to self: fluorescence slope recorded for COc1cc([C@@H]2[C@H]3CN(C)CC=C3C(C#N)=C(N)C2(C#N)C#N)cc2c1OCO2 was -0.309 (inactive)

response.value for Cc1ccc(-n2ncc3c(N4CCN(c5ccccc5)CC4)ncnc32)c(C)c1 (field: fluorescence slope) = -0.379 (inactive)

The recorded fluorescence slope for CC1(C)Cc2c(sc(NC(=O)c3ccc(Br)o3)c2C#N)CO1 is -0.371 (inactive)

Consider CCc1c(C)c(C#N)c2nc3ccccc3n2c1-n1nc(C)cc1C . Its measured fluorescence slope is -0.352 (inactive)

For record COC(=O)C1C(=O)CC(C)(O)C(C(=O)OC)C1c1ccccc1F (configuration not stated) the listed fluorescence slope is -0.345 (inactive)

So for Cc1cc(C)c(NC(=O)OCCN2CCOCC2)c(C)c1 , the logged fluorescence slope turned out to be -0.468 (inactive)

For this compound ( COc1cccc(-c2nc(NCC3CCCO3)c3ccccc3n2)c1O (configuration not stated) ), measured fluorescence slope is -0.34 (inactive)

Form field fluorescence slope, entry CCCCOc1nc2ccccc2nc1C(C#N)C(=O)NC1CCCCC1 (configuration not stated) : -0.41 (inactive)

Input Cc1c(NC(=O)c2coc(=O)c(Br)c2)c(=O)n(-c2ccccc2)n1C . Output fluorescence slope: -0.46 (inactive)

Entry Fc1ccc(OCCOCCNCC2CCCO2)cc1 (configuration not stated) , fluorescence slope reported as -0.557 (inactive)

Item: O=C1C2ON(c3ccccc3)C(c3ccncc3)C2C(=O)N1c1ccc(Br)cc1 (configuration not stated) | fluorescence slope: -0.414 (inactive)

Looking up CCCCC[C@H](O)/C=C/C1=C(CCCCCCC(=O)O)C(=O)CC1 , I see its fluorescence slope listed as -0.474 (inactive)

COC(=O)CC1=NC(=O)CS1 has a reported fluorescence slope of -0.41 (inactive)

Record C=CCn1c(SCC#N)nc2c(c1=O)C(C)(C)Cc1ccccc1-2 . Reported fluorescence slope: -0.315 (inactive)

Consider CC1(C)Cc2c(sc3c2C2=NCCN2C=N3)CS1 . Its measured fluorescence slope is -0.487 (inactive)

Recorded fluorescence slope (compound CCOC(=O)c1cc(C)n(-c2ccc(OC)c(OC)c2)c1C ): -0.516 (inactive)

Just so you know, measured fluorescence slope for COCCCNC(=O)c1c(N)n(/N=C/c2cccs2)c2nc3ccccc3nc12 came out at -0.266 (inactive)

Sample O=S(CCc1ccncc1)Cc1ccccc1 (configuration not stated) ; fluorescence slope observed: -0.427 (inactive)

Form field fluorescence slope, entry CCOC(=O)Cn1c(SC)nc2sc3c(c2c1=O)CC(C)(C)OC3 : -0.459 (inactive)

In plain terms, CCC(c1c(C)n(C)n(-c2ccccc2)c1=O)c1c(C)n(C)n(-c2ccccc2)c1=O has a documented fluorescence slope of -0.488 (inactive)

What the record says about N#C/C(=C\c1ccc(O)c(O)c1)C(=O)NCCCc1ccccc1 : fluorescence slope is -0.49 (inactive)

Looking up C=CCOC(=O)C(C#N)c1nc2ccccc2nc1N1CCN(c2ccccc2OCC)CC1 (configuration not stated) , I found its fluorescence slope recorded as -0.494 (inactive)

response.value for COc1ccc(C(=O)Cn2c(N3CCCCC3)nc3c2c(=O)n(C)c(=O)n3C)cc1OC (field: fluorescence slope) = -0.424 (inactive)

Briefly, fluorescence slope measured for CCOC(=O)C1CCN(C(C)=C2C(=O)c3ccccc3C2=O)CC1 : -0.418 (inactive)

Entry Cc1cc(OCCN2CCOCC2)nc2ccccc12 , fluorescence slope reported as -0.431 (inactive)

// fluorescence slope lookup, compound = CCCc1cc(-n2ccnc2C)n2c(nc3ccccc32)c1C#N , result: -0.415 (inactive)

# fluorescence slope (compound: CCOc1cccc(-c2nnc3sc(C4CCCCC4)nn23)c1 ) is -0.446 (inactive)

Summary for this compound, CCOc1ccccc1N1CCN(c2nc3ccccc3nc2C(C#N)C(=O)OC(C)C)CC1 (configuration not stated) : fluorescence slope is -0.399 (inactive)

For reference, reported fluorescence slope for COC(=O)c1ccc(-c2sc3nc(N4CCOCC4)c4c(c3c2N)CCCC4)o1 stands at -0.000813 (inactive)

Per the record, Fc1cc(F)c(F)c(SCCc2ccncc2)c1F has fluorescence slope of -0.422 (inactive)

Sourced from PubChem BioAssay
